B1: HDV Ribozyme (parent)
chain: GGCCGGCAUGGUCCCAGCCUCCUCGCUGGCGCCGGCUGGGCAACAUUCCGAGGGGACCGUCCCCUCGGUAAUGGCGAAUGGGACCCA

variants of: B1; test: self-cleavage, relative activity (ratio to wild type); higher = more cleavage; co-transcriptional
Recorded self-cleavage determines the label; the label ranges are bin 1 (below 0.4), bin 2 (0.4 to below 0.7), bin 3 (0.7 or more)

For orientation, consider the following solved cases.
>  <chain>
GGCCGGCAUGGUCCCAGCCUCCUCGCUGGCGCCGGCUGGGCAACAUUCCGAGGGGAGCGUCCCCUCGGUAAUGGCGAAUGGGAGCCA [C57G C84G]

>  <labelClass>
bin 3

$$$$
>  <chain>
GGCCGGCAUGGGCCCAGCCUCCUCGCUGGCGCCGGCUGGGCAACAUUCCGAGGGGACCGUCCGCUCGGUAAUGGCGAAUGGGACCCA [U12G C63G]

>  <labelClass>
bin 3

$$$$
>  <chain>
GGCCGGCAUGGUCCCAGCCUCCUCGCUGGCGCCGGCUGGGCAACAUUCCAAGGGGAACGUCCCCUCGGUAAUGGCGAAUGGGACCCA [G50A C57A]

>  <labelClass>
bin 3

$$$$
>  <chain>
GGCCGGCAUGGUCCCAGCCUCCUCGCUGGCGCCGGCUGGGCAACAUUCCGAGGAGACCGUCCCCUCGGUAAUGGCGCAUGGGACCCA [G54A A77C]

>  <labelClass>
bin 1

$$$$

[ask] Textbook exercise: identify the category of the variant given here, GGCCGGCAUGGUACCAGCUUCCUCGCUGGCGCCGGCUGGGCAACAUUCCGAGGGGACCGUCCCCUCGGUAAUGGCGAAUGGGACCCA [C13A C19U] , according to its measured value.
[reply] bin 1

[ask] Textbook exercise: identify the category of the variant given here, GGCCCGCAUGGUCCCAGCCUCCUCGCUGGCGCCGGCUGGGCAACAUUCCGAGGGGACCGUCCCCUCGGUAAUGGCGAAUUGGACCCA [G5C G80U] , according to its measured value.
[reply] bin 1

[ask] Textbook exercise: identify the category of the variant given here, GGCCGGCAUGGUCCCACCCUCCUCGCUGGCGCCGGCUGGGCAACAUUCCGAGGGGACCGUCCCCUCGGUAAUGGCGAAUGGCACCCA [G17C G82C] , according to its measured value.
[reply] bin 1

[ask] Textbook exercise: identify the category of the variant given here, GGCCGGCAUGGUCCCAGCCUCCUCGCUGGCGCCGGCUGGGCAACAUUCCGAGGGGACCGUCCCCUCGGUAAUCGCUAAUGGGACCCA [G73C G76U] , according to its measured value.
[reply] bin 2

[ask] Textbook exercise: identify the category of the variant given here, GGCCGGCAUGGUCCCAGCCUCCUCGCUGGCGCCGGCUGGGCAACAUUCCAAGGGGACCGUCCCCUCGGUACUGGCGAAUGGGACCCA [G50A A71C] , according to its measured value.
[reply] bin 2

[ask] Textbook exercise: identify the category of the variant given here, GGCUGGCAUGGUCCCAGCCUCCUCGCUGGCGCCGGCUGGGCAACAUUCCGAGGGGAACGUCCCCUCGGUAAUGGCGAAUGGGACCCA [C4U C57A] , according to its measured value.
[reply] bin 3

[ask] Textbook exercise: identify the category of the variant given here, GGCCGGCAUGGUCCCAUCCUCCUCGCUGGCGCCGGCUGGGCAACAUUCCGAGCGGACCGUCCCCUCGGUAAUGGCGAAUGGGACCCA [G17U G53C] , according to its measured value.
[reply] bin 1
